procedureDetails: chemical recovery from spiked human plasma; higher = better extraction
conditionLabel: pooled human plasma; extraction method: solvent precipitation (ACN + hexane)
measureName: chemical recovery (%)

Quick one: chemical recovery of OC(Cn1cncn1)(c1ccc(F)cc1)c1ccccc1F (centres undefined) ?
78.9

// repeat for CC1(C)CC(NC(=O)c2cccc(C(=O)NC3CC(C)(C)NC(C)(C)C3)c2)CC(C)(C)N1 and report
70.4

[A] Oc1ccc2[nH]ccc2c1 [5-Hydroxyindole]
[B] CC(=O)CC(c1ccccc1)c1c(O)c2ccccc2oc1=O (centres undefined)
Between the entries labelled A and B , which has a larger chemical recovery value on record? Write the label of whichever entry you select.
B
